# credit: ChEMBL document CHEMBL1132496

- assay-details: in vivo
- conditions: rat
Listed below: clearance values for each entry.
measure: clearance (mL/min/kg)

compound=Cn1c(=O)c2[nH]cnc2n(C)c1=O.O display_unit=mL/min/kg quantitative_readout=2.2
compound="Cc1cc(=O)n(-c2ccccc2)n1C [ANTIPYRINE]" display_unit=mL/min/kg quantitative_readout=7
compound="CCOC(=O)C1=C(C)NC(C)=C(C(=O)OC)C1c1cccc([N+](=O)[O-])c1 (stereo not given)" display_unit=mL/min/kg quantitative_readout=16.5
compound=Cc1ccc(C(=O)c2cc(O)c(O)c([N+](=O)[O-])c2)cc1 display_unit=mL/min/kg quantitative_readout=15
compound="O=C1Nc2ccc(Cl)cc2C(c2ccccc2Cl)=NC1O (stereo not given)" display_unit=mL/min/kg quantitative_readout=27.2
